Each entry below carries its recorded Kd.
- Experimental System: T1, HiNmlR wild-type (Haemophilus influenzae Rd KW20, UniProt P44558 1-135)
- T1 sequence: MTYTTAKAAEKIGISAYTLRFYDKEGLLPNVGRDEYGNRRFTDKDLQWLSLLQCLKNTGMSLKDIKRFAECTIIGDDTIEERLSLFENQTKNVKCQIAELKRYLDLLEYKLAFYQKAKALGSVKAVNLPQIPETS
- Assay Details: MST

Examples from the recorded data:
Exam item: // returns reported Kd for input PadhC-estD/nmlR IR wt 24-bp (dsDNA) DNA 1: CACTTTAGAGTTCACTCTAAAGCA DNA 2: TGCTTTAGAGTGAACTCTAAAGTG
Marked response: 0.0252 µM

Exam item: // returns reported Kd for input G5'C/C5G 24-bp (dsDNA) DNA 1: CACTTTACAGTTCACTGTAAAGCA DNA 2: TGCTTTACAGTGAACTGTAAAGTG
Marked response: 4.69 µM

---
Exam item: // returns reported Kd for input C5G 24-bp (dsDNA) DNA 1: CACTTTAGAGTTCACTGTAAAGCA DNA 2: TGCTTTACAGTGAACTCTAAAGTG
Marked response: 0.252 µM

Exam item: // returns reported Kd for input G5'C 24-bp (dsDNA) DNA 1: CACTTTACAGTTCACTCTAAAGCA DNA 2: TGCTTTAGAGTGAACTGTAAAGTG
Marked response: 0.245 µM
